Data origin: ChEMBL document CHEMBL1122229

- test target: Adrenergic receptor alpha-2 (Rattus norvegicus) (UniProt P22086+P19328+P22909)
- procedure summary: In vitro presynaptic antagonist potency at alpha-2 adrenergic receptor in rat or mouse vas deferens relative to compound 5 (RX781094)
- Assay type: functional, tissue-based
reported metric: Antagonist potency

# molecule, test target, reported metric, number
rows = [
    ("CC1CN=C(C2COc3ccccc3O2)N1 (stereo unspecified)", "Adrenergic receptor alpha-2 (Rattus norvegicus) (UniProt P22086+P19328+P22909)", "Antagonist potency", 0.003),
]

P: c1ccc2c(c1)OCC(Cc1ncc[nH]1)O2 (stereo unspecified)
Q: N=C(N)C1COc2ccccc2O1 (stereo unspecified)
Ask: Parameter metric = Antagonist potency. Return the lower-valued option from P and Q . # reply format: chosen label
Reply: P

---

- test target: Adrenergic receptor alpha-1 (Rattus norvegicus) (UniProt P15823+P23944+P43140)
- procedure summary: In vitro postsynaptic antagonist potency at alpha-1 adrenergic receptor in rat anococcygeus relative to compound 5 (RX781094)
- Format: functional
reported metric: Antagonist potency

# molecule, reported metric, number
data = [
    ("CC(C)(C)c1ccc2c(c1)OCC(C1=NCCN1)O2 (stereo not drawn)", "Antagonist potency", 0.1),
    ("O=[N+]([O-])c1cccc2c1OC(C1=NCCN1)CO2 (stereo not drawn)", "Antagonist potency", 0.09),
    ("Cc1ccc2c(c1)OCC(C1=NCCN1)O2 (stereo not drawn)", "Antagonist potency", 0.4),
    ("Brc1cc2c(cc1Br)OC(C1=NCCN1)CO2 (stereo not drawn)", "Antagonist potency", 0.1),
    ("Fc1ccc2c(c1)OCC(C1=NCCN1)O2 (stereo not drawn)", "Antagonist potency", 0.1),
]

1: COc1cccc(OC)c1OCC/N=C(\N)C1COc2ccccc2O1 (stereo not drawn)
2: c1ccc2c(c1)OCC(c1ncc[nH]1)O2 (stereo not drawn)
Ask: Parameter metric = Antagonist potency. Return the lower-valued option from 1 and 2 . # reply format: chosen label
Reply: 2
(2: 0.01, 1: 0.1)

---

- test target: Adrenergic receptor alpha-1 (Rattus norvegicus) (UniProt P15823+P23944+P43140)
- procedure summary: In vitro postsynaptic antagonist potency at alpha-1 adrenergic receptor in rat anococcygeus relative to compound 5 (RX781094)
- Format: functional
reported metric: Antagonist potency

# molecule, reported metric, number
rows = [
    ("CC(C)c1cccc2c1OCC(C1=NCCN1)O2 (stereo not given)", "Antagonist potency", 1),
]

I: CN1CCN=C1C1COc2ccccc2O1 (stereo not given)
II: N/C(=N\CCCO)C1COc2ccccc2O1 (stereo not given)
III: c1ccc2c(c1)OCC(Cc1ncc[nH]1)O2 (stereo not given)
Ask: Order the records so the highest Antagonist potency appears first and the lowest last. List labels; respect the requested ordering.
Reply: III, I, II

---

- test target: Adrenergic receptor alpha-2 (Rattus norvegicus) (UniProt P22086+P19328+P22909)
- procedure summary: In vitro presynaptic agonist potency at alpha-2 adrenergic receptor in rat or mouse vas deferens relative to clonidine
- Type: functional, tissue-based
reported metric: Agonist potency

# molecule, Agonist potency
data = [
    ("Clc1ccc(Cl)c2c1OCC(C1=NCCN1)O2 (stereo unspecified)", 0.02),
    ("COc1cccc(OC)c1OCC/N=C(\\N)C1COc2ccccc2O1 (stereo unspecified)", 0.0001),
    ("Oc1ccc2c(c1)OC(C1=NCCN1)CO2 (stereo unspecified)", 0.15),
    ("Nc1noc(C2COc3ccccc3O2)n1 (stereo unspecified)", 0.0001),
    ("Oc1cc2c(cc1O)OC(C1=NCCN1)CO2 (stereo unspecified)", 0.0006),
    ("COc1ccccc1OCC1=NCCN1", 0.001),
    ("Cc1ccc(C)c2c1OCC(C1=NCCN1)O2 (stereo unspecified)", 0.19),
    ("CC(C)c1cccc2c1OCC(C1=NCCN1)O2 (stereo unspecified)", 0.1),
    ("Cc1cccc2c1OC(C1=NCCN1)CO2 (stereo unspecified)", 0.01),
    ("Clc1cccc2c1OC(C1=NCCN1)CO2 (stereo unspecified)", 0.67),
    ("Oc1ccc2c(c1)OCC(C1=NCCN1)O2 (stereo unspecified)", 0.015),
]

---

- test target: Adrenergic receptor alpha-2 (Rattus norvegicus) (UniProt P22086+P19328+P22909)
- procedure summary: In vitro presynaptic agonist potency at alpha-2 adrenergic receptor in rat or mouse vas deferens relative to clonidine; IA means inactive
- Format: functional, tissue-based
Calls of active or inactive are those of the source. The calls are words filed in the database; no cut-off is given here.
reported metric: Agonist potency

# molecule, test target, Agonist potency
rows = [
    ("CC(C)(C)c1ccc2c(c1)OCC(C1=NCCN1)O2 (stereo not drawn)", "Adrenergic receptor alpha-2 (Rattus norvegicus) (UniProt P22086+P19328+P22909)", "inactive"),
    ("N=C(C1COc2ccccc2O1)N1CCCCC1 (stereo not drawn)", "Adrenergic receptor alpha-2 (Rattus norvegicus) (UniProt P22086+P19328+P22909)", "inactive"),
    ("CCCC/N=C(\\NCCCC)C1COc2ccccc2O1 (stereo not drawn)", "Adrenergic receptor alpha-2 (Rattus norvegicus) (UniProt P22086+P19328+P22909)", "inactive"),
    ("c1ccc2c(c1)OCC(c1nc3ccccc3[nH]1)O2 (stereo not drawn)", "Adrenergic receptor alpha-2 (Rattus norvegicus) (UniProt P22086+P19328+P22909)", "inactive"),
    ("COc1cccc2c1OCC(C1=NCCN1)O2 (stereo not drawn)", "Adrenergic receptor alpha-2 (Rattus norvegicus) (UniProt P22086+P19328+P22909)", "inactive"),
    ("c1ccc2cc3c(cc2c1)OCC(C1=NCCN1)O3 (stereo not drawn)", "Adrenergic receptor alpha-2 (Rattus norvegicus) (UniProt P22086+P19328+P22909)", "inactive"),
]

Ask: // Agonist potency lookup, key: COCC/N=C(\N)C1COc2ccccc2O1 (stereo not drawn)
Reply: inactive

Ask: // Agonist potency lookup, key: O=[N+]([O-])c1ccc2c(c1)OCC(C1=NCCN1)O2 (stereo not drawn)
Reply: inactive

Ask: // Agonist potency lookup, key: Cc1ccc2c(c1)OCC(C1=NCCN1)O2 (stereo not drawn)
Reply: inactive

---

- test target: Adrenergic receptor alpha-1 (Rattus norvegicus) (UniProt P15823+P23944+P43140)
- procedure summary: Ratio of presynaptic antagonist potency to postsynaptic antagonist potency
- Format: functional
reported metric: Selectivity

Some entries whose results are on file:
# compound, test target, number
rows = [
    ("Cc1ccc2c(c1)OC(C1=NCCN1)CO2 (stereo not given)", "Adrenergic receptor alpha-1 (Rattus norvegicus) (UniProt P15823+P23944+P43140)", 0.14),
    ("c1ccc2c(c1)OCC(Cc1ncc[nH]1)O2 (stereo not given)", "Adrenergic receptor alpha-1 (Rattus norvegicus) (UniProt P15823+P23944+P43140)", 0.016),
    ("N=C(C1COc2ccccc2O1)N1CCCCC1 (stereo not given)", "Adrenergic receptor alpha-1 (Rattus norvegicus) (UniProt P15823+P23944+P43140)", 0.01),
]

I: CC1CN=C(C2COc3ccccc3O2)N1 (stereo not given)
II: COc1cccc(OC)c1OCC/N=C(\N)C1COc2ccccc2O1 (stereo not given)
III: c1ccc2c(c1)OCC(CC1=NCCN1)O2 (stereo not given)
Ask: # ascending order, key=Selectivity List labels; respect the requested ordering.
Reply: I, II, III
(I: 0.003, II: 0.01, III: 0.33)

1: CN1CCN=C1C1COc2ccccc2O1 (stereo not given)
2: c1ccc2c(c1)OCC(c1ncc[nH]1)O2 (stereo not given)
Ask: Parameter metric = Selectivity. Return the lower-valued option from 1 and 2 . # reply format: chosen label
Reply: 1
(1: 0.003, 2: 0.1)

---

This section presents compounds with their documented Antagonist potency values.
- test target: Adrenergic receptor alpha-2 (Rattus norvegicus) (UniProt P22086+P19328+P22909)
- procedure summary: In vitro presynaptic antagonist potency at alpha-2 adrenergic receptor in rat or mouse vas deferens relative to compound 5 (RX781094)
- Type: functional, tissue-based
Lab note: record the figure alone, no unit after it.

# compound, Antagonist potency
rows = [
    ("Clc1cc2c(cc1Cl)OC(C1=NCCN1)CO2 (stereo not given)", 0.003),
    ("CC(C)(C)c1ccc2c(c1)OCC(C1=NCCN1)O2 (stereo not given)", 0.01),
]

Please turn your attention to the following entry.
Ask: // Antagonist potency lookup, key: Clc1ccc(Cl)c2c1OCC(C1=NCCN1)O2 (stereo not given)
Reply: 0.26

---

This section presents compounds with their documented Agonist potency values.
- test target: Adrenergic receptor alpha-1 (Rattus norvegicus) (UniProt P15823+P23944+P43140)
- procedure summary: In vitro postsynaptic agonist potency at alpha-1 adrenergic receptor in rat anococcygeus muscle relative to phenylephrine
- Type: functional, tissue-based
Lab note: record the figure alone, no unit after it.

# compound, number
rows = [
    ("Brc1ccc2c(c1)OCC(C1=NCCN1)O2 (configuration not stated)", 0.05),
    ("Oc1ccc2c(c1)OCC(C1=NCCN1)O2 (configuration not stated)", 0.55),
    ("Clc1ccc(Cl)c2c1OCC(C1=NCCN1)O2 (configuration not stated)", 0.55),
    ("Oc1cccc2c1OCC(C1=NCCN1)O2 (configuration not stated)", 0.017),
]

Ask: // Agonist potency lookup, key: COc1cccc2c1OCC(C1=NCCN1)O2 (configuration not stated)
Reply: 5

Ask: // Agonist potency lookup, key: CC(C)c1cccc2c1OCC(C1=NCCN1)O2 (configuration not stated)
Reply: 0.5

Ask: // Agonist potency lookup, key: Oc1ccc2c(c1)OC(C1=NCCN1)CO2 (configuration not stated)
Reply: 1.1
